# Experimental Target: T1, recombinant human LAG3 Fc Chimera Protein (R&D Systems, 2319-L3) (human, UniProt P18627 23-450)
# T1 construct: Bought reagent
# T1 sequence (looked up): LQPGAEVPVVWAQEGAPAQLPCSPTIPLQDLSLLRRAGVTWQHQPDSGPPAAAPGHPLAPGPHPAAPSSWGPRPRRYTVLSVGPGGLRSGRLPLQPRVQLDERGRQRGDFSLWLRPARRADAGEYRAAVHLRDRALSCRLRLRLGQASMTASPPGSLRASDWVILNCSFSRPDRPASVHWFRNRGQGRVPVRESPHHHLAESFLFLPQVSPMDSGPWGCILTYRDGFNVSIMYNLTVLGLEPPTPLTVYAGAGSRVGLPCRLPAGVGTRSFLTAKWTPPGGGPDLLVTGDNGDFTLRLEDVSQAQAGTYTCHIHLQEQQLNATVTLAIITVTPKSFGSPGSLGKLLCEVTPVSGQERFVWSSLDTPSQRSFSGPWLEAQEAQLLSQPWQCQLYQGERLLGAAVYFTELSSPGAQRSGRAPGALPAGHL
# Procedure Summary: SPR (Biacore), aVH-Fc captured by anti-human Fc, human LAG-3 Fc chimera as analyte, 25 C
Measurement Label: t1/2 (min)
Field format: number, assumed min, no unit text.

As a guide, the following entries are already answered.
# Binder, t1/2, min
records = [
    ("bivalent 17D7 aVH-Fc (Fc fusion) EVQLVESGGGLVQPGGSLRLSCAASGFNIKDTCIGWVRRAPGKGTELVAEICTDIGYTRYADSVKGRFTISADTSKNTAYLQMNSLRAEDTAVYYCAAGEGSSGFHYWGQGTTVTVSSGGGGSGGGGSDKTHTCPPCPAPEAAGGPSVFLFPPKPKDTLMISRTPEVTCVVVDVSHEDPEVKFNWYVDGVEVHNAKTKPREEQYNSTYRVVSVLTVLHQDWLNGKEYKCKVSNKALGAPIEKTISKAKGQPREPQVYTLPPSRDELTKNQVSLTCLVKGFYPSDIAVEWESNGQPENNYKTTPPVLDSDGSFFLYSKLTVDKSRWQQGNVFSCSVMHEALHNHYTQKSLSLSPGK", 65.9),
    ("bivalent P9G1 aVH-Fc (Fc fusion) EVQLVESGGGLVQPGGSLRLSCAASGFNIKDTCIGWVRRAPGKGTELVAEICQDIGYTRYADSVKGRFTISADTSKNTAYLQMNSLRAEDTAVYYCAGEEGATNFKYWGQGTTVTVSSGGGGSGGGGSDKTHTCPPCPAPEAAGGPSVFLFPPKPKDTLMISRTPEVTCVVVDVSHEDPEVKFNWYVDGVEVHNAKTKPREEQYNSTYRVVSVLTVLHQDWLNGKEYKCKVSNKALGAPIEKTISKAKGQPREPQVYTLPPSRDELTKNQVSLTCLVKGFYPSDIAVEWESNGQPENNYKTTPPVLDSDGSFFLYSKLTVDKSRWQQGNVFSCSVMHEALHNHYTQKSLSLSPGK", 589),
    ("bivalent 19G3 aVH-Fc (Fc fusion) EVQLVESGGGLVQPGGSLRLSCAASGFNIKYQCIGWVRRAPGKGTELVAEICSYDGYTRYADSVKGRFTISADTSKNTAYLQMNSLRAEDTAVYYCAAEESVEGFIYWGQGTTVTVSSGGGGSGGGGSDKTHTCPPCPAPEAAGGPSVFLFPPKPKDTLMISRTPEVTCVVVDVSHEDPEVKFNWYVDGVEVHNAKTKPREEQYNSTYRVVSVLTVLHQDWLNGKEYKCKVSNKALGAPIEKTISKAKGQPREPQVYTLPPSRDELTKNQVSLTCLVKGFYPSDIAVEWESNGQPENNYKTTPPVLDSDGSFFLYSKLTVDKSRWQQGNVFSCSVMHEALHNHYTQKSLSLSPGK", 40.3),
]

Okay, now this binder:
Determine from records and report t1/2 for bivalent P11A2 aVH-Fc (Fc fusion) EVQLVESGGGLVQPGGSLRLSCAASSFNIKDTYIGWVRRAPGKGTELVAEIACHEGTTRYADSVKGRFTISCDTSKNTAYLQMNSLRAEDTAVYYCANTEYDDIFDYWGQGTTVTVSSGGGGSGGGGSDKTHTCPPCPAPEAAGGPSVFLFPPKPKDTLMISRTPEVTCVVVDVSHEDPEVKFNWYVDGVEVHNAKTKPREEQYNSTYRVVSVLTVLHQDWLNGKEYKCKVSNKALGAPIEKTISKAKGQPREPQVYTLPPSRDELTKNQVSLTCLVKGFYPSDIAVEWESNGQPENNYKTTPPVLDSDGSFFLYSKLTVDKSRWQQGNVFSCSVMHEALHNHYTQKSLSLSPGK
2.4
